All values here come from the nanobody polyreactivity screen of Harvey et al. (2022).

# protocolText: yeast display, Sf9 membrane polyspecificity reagent, FACS + sequencing; frameworks hold sequencing errors
propertyMeasured: polyreactivity (PSR sort gate)

sequenceRecord	polyreactivity (PSR sort gate)
QVQLVESGGGLVQEGGSLRLSCAASGRIFRRYTMGWYRQAPGKERELVAVITSGGNTHYADSVKGRFTISRDNAKNTVYLQMNSLKPEDTAVYYCAARHYRGSNDYWGQGTQVTVSS	high polyreactivity
QVQLVESGGGLVQAGGSLRLSCAASGLTIGYYAMGWYRQAPGKERELVAAISGSGGATYYADSVKGRFTISRDNAKNTVYLQMNSLKPEDTAVYYCAAKWGRTGRFDYWGQGTQVTVSS	low polyreactivity
QVQLVESGGGLVQAGGSLRLSCAASGRTFKRNPMGWYRQAPGKERELVAAISGTGSTNYADSVKGRFTISRDNAKNTVYLQMNSLKPEDSAVYYCNADIYSYRYPYVYWGQGTQVTVSS	low polyreactivity
QVQLVESRGGLVQAGGSLRLSCAASGITFTIYAMGWYRQAPGKERELVAAITWTSDITHYADSVKGRFTISRDNAKNTVYLQMISLKPEDTAVYYCAATTWDEYDYWGQGTQVTVSS	high polyreactivity
QVQLVESGGGLVQAGGSLRLSCAASGSTFAWYTMGWYRQAPGKERELVASITSTGSTNYADSVKGRFTISRDNAKNTVYLQMNSLKPEDTAVYYCAAAVRAWYRRLYDYWGQGTQVTVSS	high polyreactivity

Query: Need polyreactivity (PSR sort gate), item `QVQLVESGGGIVQAGRSLRLSCAASGRIFYTNVMGWYRQAPGKERELDAAISSAGTTYYADSVKGRFTISRDNAKNTVYLQMNSLKPEDTAVYYCAADQVAYYGFDYWGQVTQVTVSS`
Response: low polyreactivity

Query: Let us now turn to `QVQLVESGGGLVQAGGSLRLSCAASGFIFRSYAMGWYRQAPGKERELVAVISRRGVNTHYADSVKGRFTISRDNAKNTVYLQMNSLKPEDTAVYYCAKGLTALGDYWGQGTQVTVSS`
Response: high polyreactivity

Query: Let us now turn to `QVQLVESGGGLVQAGGSLLLSCAASGRTFRPYSMGWYRQAPGKERELVAAITRSGGSTYYADSVKGRFTISRDNEKNTVYLQMNSLKPEDTAVYYCAAYNTYSDTYDYWGQGTQVTVSS`
Response: low polyreactivity

Query: Let us now turn to `QVQLVESGGGLVQAGGSLRLSCAASGSILGYYVMGWYRQAPGKERELVAVISSDGSTYYADSVKGRFTISRDNAKNTVYLQMNSLKPEDTAVYYCNADYYVEYDYWGQGTQVTVSS`
Response: low polyreactivity

Query: Let us now turn to `QVQLVESGGGLVQAGGSLRLSCAASGSTFYVYAMGWYRQAPGKERELVAAINFNGGGTYYADSVKGRFTISRDNAKNTVYLQMNSLKPEDTAVYYCYYLYNYWGQGTQVTVSS`
Response: low polyreactivity

Query: Let us now turn to `QVQLVESGGGLVQAGGSLRLSCAASGFILPYYTMGWYRQAPGKDRELVAAITYSGASPFYADSVKGRFTISRVNAKNTVYLQMNSLKPEDTGVYYGANEWSGWYESPLDDGDYDYWGQGTEVTVSS`
Response: low polyreactivity
